Reference source: ChEMBL document CHEMBL1140143

System Tested: Hormone-sensitive lipase (Rattus norvegicus, UniProt P15304)
Experimental Details: Inhibition of HSL in Wistar rat isolated fat cells by spectrophotometric assay
Quick rule for you: IC50 under 10 nM gets true (1), anything else gets false (0).

Consider the following illustrative entries.
1. Cc1c(C(C)C)c(=O)on1C(=O)N(C)c1ccccc1 : true (1)
2. Cc1c(C(C)C)c(=O)on1C(=O)N(C)Cc1cccs1 : true (1)
3. CSc1nc(-c2ccc(Cl)cc2)nn1C(=O)N1CCOCC1 : false (0)
4. Cc1c(C(C)C)c(=O)on1C(=O)N1CCSCC1 : true (1)

QUERY: API: query returns whether the compound falls strictly under 10 nM in IC50. Query: CCCCOc1ccc(Oc2ccc(C(F)(F)F)cc2[N+](=O)[O-])cc1
RESULT: false (0)

QUERY: API: query returns whether the compound falls strictly under 10 nM in IC50. Query: Cc1c(C(C)C)c(=O)on1C(=O)N1CCN(C)CC1
RESULT: false (0)

QUERY: API: query returns whether the compound falls strictly under 10 nM in IC50. Query: COc1ccc(-c2nc(SC)n(C(=O)N(C)C)n2)cc1
RESULT: false (0)

QUERY: API: query returns whether the compound falls strictly under 10 nM in IC50. Query: Cc1c(C(C)(C)C)c(=O)on1C(=O)N1CCCCC1
RESULT: false (0)

QUERY: API: query returns whether the compound falls strictly under 10 nM in IC50. Query: Cc1c(-c2ccccc2)c(=O)on1C(=O)N1CCCCC1
RESULT: false (0)

QUERY: API: query returns whether the compound falls strictly under 10 nM in IC50. Query: COc1nn(-c2ccc(NC(=O)c3ccc(C(C)(C)C)cc3)cc2)c(=O)o1
RESULT: true (1)

QUERY: API: query returns whether the compound falls strictly under 10 nM in IC50. Query: Cc1c(C(C)C)c(=O)on1C(=O)N1CCOCC1
RESULT: false (0)

QUERY: API: query returns whether the compound falls strictly under 10 nM in IC50. Query: Cc1c(C(C)C)c(=O)on1C(=O)N1CCc2ccccc21
RESULT: false (0)

###

System Tested: UniProt P15304
Sequence (whole entry): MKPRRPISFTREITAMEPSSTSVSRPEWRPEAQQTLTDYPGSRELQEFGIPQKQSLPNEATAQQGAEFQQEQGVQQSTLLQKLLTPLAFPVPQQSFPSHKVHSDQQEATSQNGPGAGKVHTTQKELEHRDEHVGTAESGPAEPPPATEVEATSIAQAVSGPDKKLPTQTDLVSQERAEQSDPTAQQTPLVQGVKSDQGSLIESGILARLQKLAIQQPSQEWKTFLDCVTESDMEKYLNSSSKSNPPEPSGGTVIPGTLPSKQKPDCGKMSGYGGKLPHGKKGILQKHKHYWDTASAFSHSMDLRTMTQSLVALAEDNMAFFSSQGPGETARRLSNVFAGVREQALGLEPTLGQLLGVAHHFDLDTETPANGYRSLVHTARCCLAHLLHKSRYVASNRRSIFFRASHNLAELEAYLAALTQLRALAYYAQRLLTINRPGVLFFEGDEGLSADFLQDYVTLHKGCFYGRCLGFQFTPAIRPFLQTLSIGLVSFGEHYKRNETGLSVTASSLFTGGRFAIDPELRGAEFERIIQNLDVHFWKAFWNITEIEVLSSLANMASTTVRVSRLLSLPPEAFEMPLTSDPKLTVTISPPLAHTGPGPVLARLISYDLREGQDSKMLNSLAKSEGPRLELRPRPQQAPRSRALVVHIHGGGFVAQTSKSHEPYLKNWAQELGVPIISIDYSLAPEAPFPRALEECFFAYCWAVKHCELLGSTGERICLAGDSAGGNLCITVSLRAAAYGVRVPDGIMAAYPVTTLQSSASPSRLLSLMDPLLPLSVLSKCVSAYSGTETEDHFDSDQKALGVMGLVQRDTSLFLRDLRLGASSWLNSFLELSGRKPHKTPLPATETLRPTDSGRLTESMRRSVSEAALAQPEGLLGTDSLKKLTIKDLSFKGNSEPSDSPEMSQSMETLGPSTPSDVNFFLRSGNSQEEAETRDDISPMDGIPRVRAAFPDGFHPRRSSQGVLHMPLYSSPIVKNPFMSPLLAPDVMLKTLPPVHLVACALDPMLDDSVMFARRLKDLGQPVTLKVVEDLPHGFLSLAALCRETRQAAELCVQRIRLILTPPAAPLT
Experimental Details: Inhibition of HSL in Wistar rat isolated fat cells at 10 uM by spectrophotometric assay
Quantity Kind: inhibition
Enter the number, and then the unit.

Solved entries (count: 5):
1. COc1ccc(C(O)c2cc3ccccc3n2S(=O)(=O)c2ccccc2)cc1 (stereo unspecified) : 29%
2. CC(C)=NNc1ccnc(SCc2ccccc2)n1 : 2%
3. CCSCc1ccccc1OC(=O)NC : 52%
4. COC1=CC(=O)OC(c2ccco2)C1 (stereo unspecified) : 12%
5. COc1ccc(Br)c(C(=O)O)c1OS(=O)(=O)c1ccc(C)cc1 : 30%

Kindly note: UniProt P15304, COC(=O)C1Oc2ccc(Cl)cc2C1=O (stereo unspecified) , inhibition value reported: 3%

###

System Tested: Hormone-sensitive lipase (Rattus norvegicus)
Experimental Details: Inhibition of HSL in Wistar rat isolated fat cells by spectrophotometric assay
Quick rule for you: IC50 under 90 nM gets 1 (yes), anything else gets 0 (no).

Consider the following illustrative entries.
1. Cc1c(C(C)C)c(=O)on1C(=O)N1CCCC1 : 1 (yes)
2. Cc1c(C(C)C)c(=O)on1C(=O)N1CCCCC1C (configuration not stated) : 0 (no)
3. O=C(N1CCOCC1)n1nc(-c2ccc(Cl)cc2)nc1SCC(F)(F)F : 0 (no)
4. Cc1c(Sc2ccccc2)c(=O)on1C(=O)N1CCCCC1 : 1 (yes)
5. Cc1c(C(C)C)c(=O)on1C(=O)N1CCCc2ccccc21 : 1 (yes)

QUERY: API: query returns whether the compound falls strictly under 90 nM in IC50. Query: CCCCCCSc1nc(-c2ccc(C)cc2)nn1C(=O)N(C)C
RESULT: 0 (no)

QUERY: API: query returns whether the compound falls strictly under 90 nM in IC50. Query: Cc1c(C(C)C)c(=O)on1C(=O)N1CCN(c2ncccn2)CC1
RESULT: 1 (yes)

###

System Tested: Hormone-sensitive lipase (Rattus norvegicus, UniProt P15304)
Experimental Details: Inhibition of HSL in Wistar rat isolated fat cells by spectrophotometric assay
pIC50: −log10 of the molar value.
// false strictly below 8 in pIC50; true otherwise

Consider the following illustrative entries.
1) Cc1c(C(C)C)c(=O)on1C(=O)N1CCC(Cc2ccccc2)CC1 : false
2) CSc1nc(-c2ccc(C)cc2)nn1C(=O)N(C)c1ccccc1 : true
3) Cc1c(C(C)C)c(=O)on1C(=O)N1CC(C)CCC1C (stereo unspecified) : false

QUERY: Evaluate CSc1nc(-c2ccc(OC(F)(F)F)cc2)nn1C(=O)N(C)c1ccccc1 : pIC50 at minimum 8?
RESULT: true

QUERY: Evaluate Cc1c(C(C)C)c(=O)on1C(=O)N1CCCCCCC1 : pIC50 at minimum 8?
RESULT: false

QUERY: Evaluate Cc1c(C(C)C)c(=O)on1C(=O)N(C)CC(N)=O : pIC50 at minimum 8?
RESULT: false

###

System Tested: UniProtKB P15304
Experimental Details: Inhibition of HSL in Wistar rat isolated fat cells at 1 uM by spectrophotometric assay
inhibition for assorted compounds
Write it as a number; the unit % goes unstated.

Solved entries (count: 3):
1. CCOc1ccc([Si](C)(C)CCCc2ccc(F)c(Oc3ccccc3)c2)cc1 : 6
2. CC1(C)C(C(=O)OC(C#N)c2cccc(Oc3ccccc3)c2)C1(C)C (stereo not given) : 35
3. CCOC(=O)c1nc2ccccc2nc1NCc1ccc(OC)cc1 : 27

Entry under test: Cc1ccc(-c2nc(SCc3ccccc3)nc(O)c2CCO)cc1 . Its inhibition was 45

Entry under test: CC(C)C(C(=O)OC(C#N)c1cccc(Oc2ccccc2)c1)c1ccc(Cl)cc1 (stereo not given) . Its inhibition was 37

Entry under test: O=c1c(O)c(-c2ccccc2)oc2ccccc12 . Its inhibition was 23

Entry under test: COc1cccc(CSC(C(=O)O)c2ccccc2)c1 (stereo not given) . Its inhibition was 67

Entry under test: CC(=O)Oc1cc(OCCCc2ccc(F)cc2)cc2c1-c1ccccc1CC2 . Its inhibition was 24

Entry under test: O=C(COC(=O)c1ccccc1)c1ccccc1 . Its inhibition was 9

Entry under test: CC(C)[C@H](C(=O)O[C@H](C#N)c1cccc(Oc2ccccc2)c1)c1ccc(Cl)cc1 . Its inhibition was 33

Entry under test: O=C(O)/C(=N\OCc1ccccc1)c1ccccc1 . Its inhibition was 21

Entry under test: CCCCOc1ccc(Oc2ccc(C(F)(F)F)cc2[N+](=O)[O-])cc1 . Its inhibition was 64

Entry under test: COC(=O)c1cc(Oc2ccc(Cl)cc2Cl)ccc1[N+](=O)[O-] . Its inhibition was 60

Entry under test: O=C(/C=C/c1ccccc1)OCCc1ccccc1 . Its inhibition was 12

Entry under test: Cc1ccc(S(=O)(=O)Nc2cccc3cc(Cl)ccc23)cc1 . Its inhibition was 15
